System: Escherichia coli TOP10
Assay: shrunken log2 fold change of peptide-encoding DNA abundance (4.5 h post-induction vs induction); higher = less antimicrobial activity (less host growth inhibition)
Conditions: time post-induction: 4.5 h; library: site-saturation at positions 5, 18, 19, 20
Observable: shrunken log2 fold change
Answers are plain numbers.

>  <Residue String>
RRIRNRPPRLPRPRPRPQRSPRP

>  <Result Number>
0.0667

$$$$

Record shrunken log2 fold change for all entries; do not skip any.
1. RRIRARPPRLPRPRPRPCCMPRP
2. RRIRGRPPRLPRPRPRPTDNPRP
3. RRIRWRPPRLPRPRPRPDEAPRP

OUTPUT:
1: -0.0671; 2: 0.283; 3: 0.0325

Record shrunken log2 fold change for all entries; do not skip any.
1. RRIRIRPPRLPRPRPRPDKHPRP
2. RRIRVRPPRLPRPRPRPRMIPRP
3. RRIRPRPPRLPRPRPRPTSCPRP

OUTPUT:
-0.979
0.224
0.193

INPUT: Entry under review: RRIRARPPRLPRPRPRPDRPPRP . Reported shrunken log2 fold change?
OUTPUT: 0.448

----------
System: Escherichia coli TOP10
Assay: shrunken log2 fold change of peptide-encoding DNA abundance (4.5 h post-induction vs induction); higher = less antimicrobial activity (less host growth inhibition)
Settings: time post-induction: 4.5 h; library: site-saturation at positions 5, 18, 19, 20
Kindly supply the reported shrunken log2 fold change values for the records listed here.

// worked examples, shrunken log2 fold change included
>  <Residue String>
RRIRCRPPRLPRPRPRPQHRPRP

>  <shrunken log2 fold change>
-0.246

$$$$
>  <Residue String>
RRIRRRPPRLPRPRPRPLRDPRP

>  <shrunken log2 fold change>
1.05

$$$$
>  <Residue String>
RRIRCRPPRLPRPRPRPKTWPRP

>  <shrunken log2 fold change>
0.0688

$$$$
>  <Residue String>
RRIRHRPPRLPRPRPRPCSTPRP

>  <shrunken log2 fold change>
-0.337

$$$$
>  <Residue String>
RRIRERPPRLPRPRPRPRTVPRP

>  <shrunken log2 fold change>
0.0995

$$$$

Record shrunken log2 fold change for all entries; do not skip any.
1. RRIRWRPPRLPRPRPRPHWFPRP
2. RRIRWRPPRLPRPRPRPVHYPRP
3. RRIRNRPPRLPRPRPRPLRSPRP
4. RRIRNRPPRLPRPRPRPKFFPRP
5. RRIRPRPPRLPRPRPRPDTCPRP
6. RRIRGRPPRLPRPRPRPKIHPRP
7. RRIRTRPPRLPRPRPRPDNFPRP
8. RRIRLRPPRLPRPRPRPEDSPRP

OUTPUT:
1. 0.0392
2. -0.0467
3. 0.119
4. -0.298
5. -0.594
6. 0.373
7. -0.231
8. -0.0351

Record shrunken log2 fold change for all entries; do not skip any.
1. RRIRKRPPRLPRPRPRPNRKPRP
2. RRIRQRPPRLPRPRPRPGEHPRP

OUTPUT:
[0.0065, -0.0241]

----------
Test system: Escherichia coli TOP10
Assay: shrunken log2 fold change of peptide-encoding DNA abundance (4.5 h post-induction vs induction); higher = less antimicrobial activity (less host growth inhibition)
Conditions: time post-induction: 4.5 h; library: site-saturation at positions 5, 18, 19, 20
Classification field: enter true (1) for shrunken log2 fold change values not below -0.01, false (0) for values below it.

// below: answered sequences
>  <Residue String>
RRIRYRPPRLPRPRPRPDTAPRP

>  <Assigned Label>
false (0)

$$$$
>  <Residue String>
RRIRNRPPRLPRPRPRPLTVPRP

>  <Assigned Label>
true (1)

$$$$
>  <Residue String>
RRIRGRPPRLPRPRPRPWRTPRP

>  <Assigned Label>
false (0)

$$$$
>  <Residue String>
RRIRLRPPRLPRPRPRPVGQPRP

>  <Assigned Label>
true (1)

$$$$
>  <Residue String>
RRIRHRPPRLPRPRPRPNPQPRP

>  <Assigned Label>
true (1)

$$$$
>  <Residue String>
RRIRHRPPRLPRPRPRPCITPRP

>  <Assigned Label>
false (0)

$$$$
>  <Residue String>
RRIRQRPPRLPRPRPRPFWNPRP

>  <Assigned Label>
true (1)

$$$$

Turning now to a further record.
INPUT: Quick check, shrunken log2 fold change >= -0.01? RRIRARPPRLPRPRPRPVTTPRP
OUTPUT: true (1)

----------
Kindly supply the reported shrunken log2 fold change values for the records listed here.
System: Escherichia coli TOP10
Test: shrunken log2 fold change of peptide-encoding DNA abundance (4.5 h post-induction vs induction); higher = less antimicrobial activity (less host growth inhibition)
Conditions: time post-induction: 4.5 h; library: site-saturation at positions 5, 18, 19, 20
Give bare numbers.

// worked examples, shrunken log2 fold change included
>  <Residue String>
RRIRCRPPRLPRPRPRPTNDPRP

>  <Observable>
shrunken log2 fold change

>  <Result Number>
-0.218

$$$$
>  <Residue String>
RRIRMRPPRLPRPRPRPLNYPRP

>  <Observable>
shrunken log2 fold change

>  <Result Number>
-0.124

$$$$
>  <Residue String>
RRIRMRPPRLPRPRPRPHCDPRP

>  <Observable>
shrunken log2 fold change

>  <Result Number>
-0.0833

$$$$
>  <Residue String>
RRIRYRPPRLPRPRPRPDYCPRP

>  <Observable>
shrunken log2 fold change

>  <Result Number>
-0.00674

$$$$
>  <Residue String>
RRIRFRPPRLPRPRPRPIKPPRP

>  <Observable>
shrunken log2 fold change

>  <Result Number>
-0.4

$$$$

Record shrunken log2 fold change for all entries; do not skip any.
1. RRIRKRPPRLPRPRPRPEDCPRP
2. RRIRIRPPRLPRPRPRPCIMPRP
3. RRIRARPPRLPRPRPRPYVYPRP

OUTPUT:
-0.00264
-0.466
-0.182

----------
System: Escherichia coli TOP10
Test: shrunken log2 fold change of peptide-encoding DNA abundance (4.5 h post-induction vs induction); higher = less antimicrobial activity (less host growth inhibition)
Settings: time post-induction: 4.5 h; library: site-saturation at positions 5, 18, 19, 20
Observable: shrunken log2 fold change
Numbers only.

// worked examples, shrunken log2 fold change included
>  <Residue String>
RRIRLRPPRLPRPRPRPCIIPRP

>  <Result Number>
-0.394

$$$$
>  <Residue String>
RRIRQRPPRLPRPRPRPLSIPRP

>  <Result Number>
-0.325

$$$$
>  <Residue String>
RRIRVRPPRLPRPRPRPFFLPRP

>  <Result Number>
-0.294

$$$$

Record shrunken log2 fold change for all entries; do not skip any.
1. RRIRIRPPRLPRPRPRPMLIPRP
2. RRIRKRPPRLPRPRPRPSQIPRP
3. RRIRHRPPRLPRPRPRPKDNPRP
4. RRIRARPPRLPRPRPRPRWIPRP
5. RRIRPRPPRLPRPRPRPLQMPRP
6. RRIRMRPPRLPRPRPRPMFIPRP
7. RRIRARPPRLPRPRPRPKLVPRP

OUTPUT:
-0.21
0.00892
-0.201
0.239
0.205
-0.403
0.106

Record shrunken log2 fold change for all entries; do not skip any.
1. RRIRTRPPRLPRPRPRPGKFPRP
2. RRIRGRPPRLPRPRPRPREAPRP
3. RRIRDRPPRLPRPRPRPVSTPRP
4. RRIRTRPPRLPRPRPRPQPAPRP
5. RRIRKRPPRLPRPRPRPLMMPRP

OUTPUT:
1: -0.0892; 2: 1.31; 3: 0.0725; 4: 0.0787; 5: 0.207

----------
Test system: Escherichia coli TOP10;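 also: peptides expressed intracellularly from a pBAD plasmid library in pooled LB shake-flask culture, induced with 0.3% L-arabinose, DNA abundance read by NGS, three biological replicates, DESeq2 with apeglm shrinkage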
Assay: shrunken log2 fold change of peptide-encoding DNA abundance (4.5 h post-induction vs induction); higher = less antimicrobial activity (less host growth inhibition)
Conditions: time post-induction: 4.5 h; library: site-saturation at positions 5, 18, 19, 20
Kindly supply the reported shrunken log2 fold change values for the records listed here.
Give bare numbers.

>  <Residue String>
RRIRKRPPRLPRPRPRPSYAPRP

>  <Observable>
shrunken log2 fold change

>  <Result Number>
0.0314

$$$$
>  <Residue String>
RRIRLRPPRLPRPRPRPFISPRP

>  <Observable>
shrunken log2 fold change

>  <Result Number>
-0.182

$$$$

Record shrunken log2 fold change for all entries; do not skip any.
1. RRIRIRPPRLPRPRPRPVYIPRP
2. RRIRMRPPRLPRPRPRPLLVPRP
3. RRIRDRPPRLPRPRPRPRTQPRP
4. RRIRPRPPRLPRPRPRPNGVPRP

OUTPUT:
[-0.154, 0.199, 0.168, -0.0233]

Record shrunken log2 fold change for all entries; do not skip any.
1. RRIRNRPPRLPRPRPRPNVHPRP
2. RRIRGRPPRLPRPRPRPAILPRP
3. RRIRLRPPRLPRPRPRPTSWPRP
4. RRIRNRPPRLPRPRPRPCACPRP
5. RRIRGRPPRLPRPRPRPWAKPRP
6. RRIRKRPPRLPRPRPRPMRAPRP
7. RRIRDRPPRLPRPRPRPYSYPRP

OUTPUT:
1. -0.309
2. -0.0316
3. 0.199
4. -0.0293
5. -0.0167
6. 1.23
7. -0.0279

Record shrunken log2 fold change for all entries; do not skip any.
1. RRIRARPPRLPRPRPRPEYQPRP
2. RRIRVRPPRLPRPRPRPWPWPRP
3. RRIRWRPPRLPRPRPRPVYDPRP
4. RRIRRRPPRLPRPRPRPPEMPRP

OUTPUT:
[0.118, 0.197, -0.15, 0.66]

Record shrunken log2 fold change for all entries; do not skip any.
1. RRIRMRPPRLPRPRPRPPACPRP
2. RRIRLRPPRLPRPRPRPIDGPRP
3. RRIRMRPPRLPRPRPRPLKEPRP

OUTPUT:
[1.22, -0.0968, 0.701]

Record shrunken log2 fold change for all entries; do not skip any.
1. RRIRCRPPRLPRPRPRPVYAPRP
2. RRIRERPPRLPRPRPRPGWYPRP
3. RRIRIRPPRLPRPRPRPWGVPRP
4. RRIRARPPRLPRPRPRPTRDPRP
5. RRIRPRPPRLPRPRPRPHYLPRP
6. RRIRIRPPRLPRPRPRPTIAPRP
7. RRIRSRPPRLPRPRPRPLSTPRP

OUTPUT:
1: -0.515; 2: -0.0987; 3: -0.888; 4: 0.759; 5: -0.906; 6: -0.327; 7: -0.369

Record shrunken log2 fold change for all entries; do not skip any.
1. RRIRQRPPRLPRPRPRPYTEPRP
2. RRIRKRPPRLPRPRPRPFGKPRP
3. RRIRDRPPRLPRPRPRPEDPPRP
4. RRIRPRPPRLPRPRPRPRTCPRP
5. RRIRRRPPRLPRPRPRPWLQPRP
6. RRIRSRPPRLPRPRPRPLSGPRP
7. RRIRARPPRLPRPRPRPDLCPRP

OUTPUT:
1: -0.00136; 2: 0.144; 3: 0.439; 4: 0.322; 5: 0.0763; 6: -0.0801; 7: 0.393

Record shrunken log2 fold change for all entries; do not skip any.
1. RRIRWRPPRLPRPRPRPTEAPRP
2. RRIRIRPPRLPRPRPRPMTMPRP
3. RRIRSRPPRLPRPRPRPHFYPRP
4. RRIRTRPPRLPRPRPRPAHHPRP
5. RRIRIRPPRLPRPRPRPAPSPRP
6. RRIRFRPPRLPRPRPRPYQDPRP
7. RRIRPRPPRLPRPRPRPINLPRP

OUTPUT:
0.214
-0.01
0.166
-0.0336
0.444
-0.151
-0.994

Record shrunken log2 fold change for all entries; do not skip any.
1. RRIRYRPPRLPRPRPRPAMTPRP
2. RRIRNRPPRLPRPRPRPNPMPRP
3. RRIRQRPPRLPRPRPRPIKNPRP
4. RRIRARPPRLPRPRPRPFPAPRP

OUTPUT:
0.165
-0.0603
-0.186
0.439
